- Protocol details: MMV: Cytotoxicity against human fibroblasts (MRC-5) cells.
- Cond: MRC-5 cells (human fibroblasts)
Recorded IC50 for the following molecules

1) CC1CCCCN1CCCNC(=O)c1ccc2c(c1)sc1nc(-c3ccc(F)cc3)cn12 (stereo not drawn): 10.4 µM
2) CCOc1cc(Br)c(C(C)NC(=O)c2cccc(OC)c2)cc1OCC (stereo not drawn): > 32 µM

// query IC50 value for entry CN1C=C(c2ccc3ccccc3n2)C(c2c[nH]c3ccccc23)c2ccccc21 (stereo not drawn)
> 32 µM

====

Recorded IC50 for the following compounds
- System: Leishmania infantum
- Protocol details: MMV: Inhibition of Leishmania infantum (MHOM/MA/BE/67) in vitro.
- Format: functional, organism-based

// query IC50 value for entry COc1ccc(C(=O)C2CC2c2ccc(Cl)cc2)cc1 (stereo not drawn)
> 32 µM

# iterate: COc1cc(SC)ccc1C(=O)N1CCCC(C)C1 (stereo not drawn)
> 32 µM

# iterate: COc1cc(C(=O)Nc2ccc(-c3nc4ccccc4[nH]3)cc2)cc(OC)c1OC
> 32 µM

====

- Protocol details: MMV: Cytotoxicity against human fibroblasts (MRC-5) cells.
- Cond: MRC-5 cells (human fibroblasts)
Recorded IC50 for the following compounds

1. CN(C)c1ccc(C=Cc2nc(=O)c3ccccc3o2)cc1: > 32 µM
2. COc1ccc(Nc2nc(N/N=C/c3ccc(O)cc3)nc(Nc3ccc([N+](=O)[O-])cc3)n2)cc1: > 32 µM
3. CC(=O)NCCc1nc2ccccc2n1Cc1ccc(C(C)C)cc1: > 32 µM

// query IC50 value for entry O=C(Nc1ccc(-c2nc3cc(NC(=O)c4ccc(Cl)cc4)ccc3[nH]2)cc1)c1ccc(Cl)cc1
> 32 µM

# iterate: COc1ccc(CCN2C(=O)c3[nH]nc(-c4cc(Cl)c(C)cc4O)c3C2c2ccccc2F)cc1 (stereo not given)
> 32 µM

# iterate: CN1CCN(c2nc(Nc3ccc(O)cc3)nc3ccccc23)CC1
> 32 µM

====

- System: Leishmania infantum
- Protocol details: MMV: Inhibition of Leishmania infantum (MHOM/MA/BE/67) in vitro.
- Type: functional, organism-based
Recorded IC50 for the following molecules

1. CCOc1ccc(/C=C/c2nc(=O)c3ccccc3o2)cc1: > 32 µM
2. O=C(CSc1ccc2nnc(-c3cccc(F)c3)n2n1)Nc1ccc2c(c1)OCO2: > 32 µM
3. CCCCOc1ccc(C(=O)Nc2cc(C)on2)cc1: > 32 µM
4. CC(C)=CCN1CCC(C(=O)Nc2ccc(-c3nc4ccccc4[nH]3)cc2)CC1: > 32 µM
5. CCN(CC)c1ccc(NC(=O)c2cccs2)cc1: > 32 µM
6. Cc1sc2ncnc(Sc3nc4ccccc4[nH]3)c2c1C: > 32 µM
7. COc1ccc(-c2nc(NC(=O)CS(=O)(=O)c3ccc(F)cc3)sc2C)cc1: > 32 µM
8. COc1cc(CNCCc2ccc(Cl)cc2)cc(OC)c1O: > 32 µM

// query IC50 value for entry O=C(Nc1ccc(-c2nc3cc(NC(=O)c4ccc(Cl)cc4)ccc3[nH]2)cc1)c1ccc(Cl)cc1
> 32 µM

# iterate: Cc1ccccc1OCCSc1nc2ccc(NC(=O)c3ccccc3)cc2s1
> 32 µM

====

- Protocol details: MMV: Cytotoxicity against human fibroblasts (MRC-5) cells.
- Cond: MRC-5 cells (human fibroblasts)
Metric: IC50

1. CN1c2ccccc2N(C)C1c1ccc2c(c1)OCO2: > 32 µM
2. Oc1ccc(Br)cc1CN1CCN(Cc2ccc(Cl)cc2)CC1: > 32 µM

Query compound follows.
// query IC50 value for entry Nc1ccn([C@@H]2O[C@H](CO)[C@@H](O)[C@H]2O)c(=O)n1
> 32 µM
